# Test system: SNB-19 CNS
# method_summary: NCI-60 one-dose screen, 48 h (100 = growth as untreated, 0 = no growth, -100 = all killed)
# reported_conditions: 10 µM unless noted
About 83,000 compounds went through this panel and 20% of them were active in at least one assay; those are over-represented in the sample as a whole.
I'd appreciate it if you marked entries true (1) when growth is lower than 90% and false (0) when it is not.

- cpd_smiles: "NC(=Nc1ccc(N)cc1)C(N)=Nc1ccc(N)cc1"
  class_name: "false (0)"
- cpd_smiles: "CC[C@@H](C[C@H](CCO)c1ccccc1)c1cc2ccccc2o1"
  class_name: "false (0)"
- cpd_smiles: "C=C1C(=O)O[C@H]2[C@H]1CC/C(COC(=O)/C=C\\C(=O)NCc1ccc(Cn3c(=O)sn(CCCC)c3=O)cc1)=C\\CC[C@@]1(C)O[C@@H]21"
  class_name: "true (1)"
- cpd_smiles: "CCc1nc2ccccc2[nH]1"
  class_name: "false (0)"
- cpd_smiles: "COc1cccc(/C=C2\\COc3ccc(O)cc3C2=O)c1OC"
  class_name: "true (1)"
- cpd_smiles: "CCCCN(Cc1ccc(C(=O)NO)cc1)C(=O)Nc1ccc(OCCCCCCCCCn2cc(CCCCC(=O)N[C@H](C(=O)N3C[C@H](O)C[C@H]3C(=O)NCc3ccc(-c4scnc4C)cc3)C(C)(C)C)nn2)cc1"
  class_name: "true (1)"
- cpd_smiles: "Cc1ccc(NSc2ccccc2[N+](=O)[O-])cc1"
  class_name: "true (1)"
- cpd_smiles: "COc1cc(NC(=O)c2cc(O)c(CC=C(C)C)c(O)c2)cc2c1O[C@]1(C)CC[C@@H](O)C(C)(C)[C@H]1C2"
  class_name: "true (1)"
